target: Nuclear receptor subfamily 0 group B member 1 (Homo sapiens); experiment: DAX1 (NR0B1) inhibitors, primary screen, cell-based, HEK293, Gal4-DAX1, luciferase luminescence (AID 504766); settings: HEK293 Gal4-DAX1 luciferase reporter, at 6.75 µM, hits give high values;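 also: 0% = DAX1-transfected cells with DMSO and 100% = empty-vector control cells with DMSO; inhibition shows as a rise in luminescence from relieved DAX1 repression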
The whole screen tested about 340,000 compounds, of which about 3,400 (1%) were called active. The sample as a whole holds a higher share of actives than the screen did.
ATTRIBUTE MEASURED: inhibition (%)
One number for each entry, in %.

- C[C@H](CO)N1C[C@H](C)[C@@H](CN(C)C(=O)C2CCCCC2)OCc2cnnn2CCCC1=O: 0.86
- NC(=O)c1c(NC(=O)c2ccccc2)sc2c1CCCC2: 4.41

State the recorded inhibition for every item in the following list.
1. COc1ccc(Cn2c(=S)[nH]c3cc(C(=O)N4CCCCC4)ccc3c2=O)cc1
2. O=C(CN1CCCC1)Nc1sc2c(c1C(=O)Nc1ccccc1)CCCC2
3. NC(=O)C1(Nc2ccc(-c3ccccc3)cc2)CCCC1
4. CC1C(=O)N(Cc2cn(CC3CCCCC3)nn2)CCS(=O)(=O)N1Cc1ccc(-c2cccc(N(C)C)c2)cc1 (stereo not drawn)
5. CCn1c(SCC(=O)N2CCCC2=O)nc2ccccc21

### Response
1: -0.61; 2: 1.85; 3: 0.6; 4: 0.14; 5: 1.3

This collection of values is drawn from PubChem BioAssay AID504766.
